System: FGD (DNA, G4) GGGTGTGGGTGTGGGTGTGGG
test-method-notes: FRET melting
test-settings: 5 mM K+, 95 mM Li+; 10 mM lithium cacodylate pH 7.2; 0.2 µM DNA, 1 µM porphyrin
readout-type: ΔT1/2 (°C)

Solved cases (3 shown):
CCC1=C(C)c2cc3[nH]c(cc4nc(cc5[nH]c(cc1n2)c(C)c5CC)C(C)=C4CCC(=O)O)c(CCC(=O)O)c3C; 0.8
C[n+]1ccc(-c2c3nc(c(-c4cc[n+](C)cc4)c4ccc([nH]4)c(-c4cc[n+](C)cc4)c4nc(c(-c5cc[n+](C)cc5)c5ccc2[nH]5)C=C4)C=C3)cc1; 31
C=CC1=C(C)c2cc3[nH]c(cc4nc(cc5[nH]c(cc1n2)c(C)c5CCC(=O)O)C(CCC(=O)O)=C4C)c(C)c3C=C; 0.2

A. C[n+]1ccc(-c2c3nc(c(-c4cc[n+](C)cc4)c4ccc([n-]4)c(-c4cc[n+](C)cc4)c4nc(c(-c5cc[n+](C)cc5)c5ccc2[n-]5)C=C4)C=C3)cc1.[Zn+2]
B. C=Cc1c(C)c2cc3c(C=C)c(C)c(cc4nc(cc5nc(cc1[nH]2)C(C)=C5CCC(=O)O)C(CCC(=O)O)=C4C)n3C
Challenge: Short answer wanted: higher ΔT1/2, A or B ? Kindly give the label for the entry you pick.
Response given: A
(A: 22.1 °C, B: 9.8 °C)

The values you see were collected from paper PMC3384297.
